Target: T1, 4H2754-AA
T1 chain: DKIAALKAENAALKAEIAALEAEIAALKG
Test: two-hybrid library CCmax;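 also: natural log of median RNA to DNA barcode read ratio; higher means stronger binding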
Conditions: mean of both orientations
Measured Endpoint: interaction score
Answer field: number only, no words.

Binder: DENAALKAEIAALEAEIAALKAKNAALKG [4H1552-AA]
interaction score: -0.498

Reported interaction score, binder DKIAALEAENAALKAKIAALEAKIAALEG [4H2277-AA] : ____
0.512

GET /values?readout=interaction score&item= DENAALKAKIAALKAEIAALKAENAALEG [4H1867-AA]
1.11

So what does the record say about interaction score for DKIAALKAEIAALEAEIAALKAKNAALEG [4H2575-AA] ?
-1.28
